Parameter: abundance fitness. Scope: all listed entries.
B1: POU domain, class 5, transcription factor 1, residues 134 to 212; numbered along this chain, Q01860 (parent)
chain: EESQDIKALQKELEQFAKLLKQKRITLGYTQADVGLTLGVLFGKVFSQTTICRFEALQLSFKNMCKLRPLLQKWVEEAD

variants of: B1; assay: abundance fitness (aPCA) (normalised: wild type 0, dead -1); higher = more abundant; growth selection in yeast, the domain comes from the species named; details: Homo sapiens
metric: abundance fitness

{"biopolymer_sequence": "EESQDIKALQKEWEQFAKLLKQKRITLGYTQADVGLTLGVLFGKVFSQTTICRFEALQLSFKNMCKLRPLLQKWVEEAD [L13W]", "numeric_readout": -0.58}
{"biopolymer_sequence": "EESQDIKALQKELEQFAKLLKQKRIELGYTQADVGLTLGVLFGKVFSQTTICRFEALQLSFKNMCKLRPLLQKWVEEAD [T26E]", "numeric_readout": 0.04}
{"biopolymer_sequence": "EESQDIKALQKELEQFAKLLKQKRITLGYTQADVGLTLGVLFGKVFSQTTICRFEALTLSFKNMCKLRPLLQKWVEEAD [Q58T]", "numeric_readout": -0.097}
{"biopolymer_sequence": "EESQDIKALQKELEQFAKLLKQKRITLGYTQADVGLTLGVLFGKVFSQTTICRFWALQLSFKNMCKLRPLLQKWVEEAD [E55W]", "numeric_readout": -0.555}
{"biopolymer_sequence": "EESQDIKALQKELEQFAKLLRQKRITLGYTQADVGLTLGVLFGKVFSQTTICRFEALQLSFKNMCKLRPLLQKWVEEAD [K21R]", "numeric_readout": -0.191}
{"biopolymer_sequence": "EESQDIKALQKELEQFAKLLKQKRITLGYTQADVGLTLGVLFGKVFSQTTICRFEALQLDFKNMCKLRPLLQKWVEEAD [S60D]", "numeric_readout": 0.197}
{"biopolymer_sequence": "EESQDIKALQKELEQFAKLLKQKRITLGYTQADVGLTLGVLFGKVFSQTTICRFEALQLSWKNMCKLRPLLQKWVEEAD [F61W]", "numeric_readout": -0.035}
{"biopolymer_sequence": "EESQDIKALQKELEQFAKLLKQKRITLGYTQADVGLTLGVLFGKVFSQTTICRFEALQLSFKNMCKLRPLWQKWVEEAD [L71W]", "numeric_readout": -0.323}
{"biopolymer_sequence": "EESQDIKALQKELEQFAKLLKQKRITLGYTQADVGLTLGVLFGKVFSQTTICRFEPLQLSFKNMCKLRPLLQKWVEEAD [A56P]", "numeric_readout": -0.345}
{"biopolymer_sequence": "EESQDIKALQKELEQFAKLLKQKRITLGYTQADVGLTLGVLFGKVFSQTTICRFEALQLPFKNMCKLRPLLQKWVEEAD [S60P]", "numeric_readout": 0.084}
{"biopolymer_sequence": "EESQDIKALQKELEQFAKLLKQKRITLGYTQADVGLTLGVLFGKVFSQTTICRFEALQLSFKNMCKLRPLLQKWVEEAE [D79E]", "numeric_readout": -0.067}
{"biopolymer_sequence": "EESQDIKALQKELEQFAKLLKQKRITLGYTQAPVGLTLGVLFGKVFSQTTICRFEALQLSFKNMCKLRPLLQKWVEEAD [D33P]", "numeric_readout": -0.227}
{"biopolymer_sequence": "EESQDIKALQKELEQFAKLLKQKRITLGYTQADVGLTLGVLFGKVFSQTTICRFEALQLSFKNMCRLRPLLQKWVEEAD [K66R]", "numeric_readout": -0.01}

Reference for the values: the Human Domainome abundance scans (Beltran et al. 2025)
